# target-under-test: NA transporter (Rattus norvegicus, UniProt Q63380)
# Construct: from tissue; host or cells: rat brain synaptosomes (P2 fraction) from hypothalamus
# Sequence (Q63380 1-617): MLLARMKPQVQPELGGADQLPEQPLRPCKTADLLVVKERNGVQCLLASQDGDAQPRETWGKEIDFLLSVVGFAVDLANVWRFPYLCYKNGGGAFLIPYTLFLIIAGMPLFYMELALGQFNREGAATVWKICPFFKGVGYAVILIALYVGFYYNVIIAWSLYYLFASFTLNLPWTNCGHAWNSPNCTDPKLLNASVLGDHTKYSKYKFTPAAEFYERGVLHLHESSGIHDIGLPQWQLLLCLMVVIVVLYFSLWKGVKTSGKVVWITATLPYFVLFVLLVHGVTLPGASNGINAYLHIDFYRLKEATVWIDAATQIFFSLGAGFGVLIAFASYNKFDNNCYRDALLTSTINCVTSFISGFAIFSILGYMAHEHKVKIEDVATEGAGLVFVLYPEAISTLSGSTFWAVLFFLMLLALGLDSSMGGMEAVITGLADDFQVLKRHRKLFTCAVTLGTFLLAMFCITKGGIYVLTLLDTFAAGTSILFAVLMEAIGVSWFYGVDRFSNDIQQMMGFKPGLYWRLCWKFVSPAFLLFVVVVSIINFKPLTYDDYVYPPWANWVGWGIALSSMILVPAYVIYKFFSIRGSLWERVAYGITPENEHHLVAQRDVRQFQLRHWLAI
# test-description: Noradrenalin (NA) uptake inhibition in rat brain synaptosomes (hypothalamus)
# Format: biochemical
# condition-summary: 10 μM
Binary classification by NA uptake inhibition, with 70 % inhibition as an inclusive lower bound for 1 (yes); all other cases are 0 (no).

Qu. // inclusive: NA uptake inhibition at least 70 % inhibition? input: CCOC(=O)C1CCN(Cc2ccc(C(=O)N(Cc3ccccc3)Cc3ccccc3)n2C)CC1
Ans. 1 (yes)

Qu. // inclusive: NA uptake inhibition at least 70 % inhibition? input: CC1CCCCN1Cc1ccc(C(=O)N(C)Cc2ccccc2)n1C (stereo not drawn)
Ans. 1 (yes)

Qu. // inclusive: NA uptake inhibition at least 70 % inhibition? input: Cn1c(CN2CCC(Cc3ccccc3)CC2)ccc1C(=O)N1CCCCC1
Ans. 0 (no)

Qu. // inclusive: NA uptake inhibition at least 70 % inhibition? input: CC1CCN(Cc2ccc(C(=O)N(C)Cc3ccccc3)n2C)CC1
Ans. 1 (yes)

Qu. // inclusive: NA uptake inhibition at least 70 % inhibition? input: CC1CCCCN1Cc1ccc(C(=O)N(Cc2ccccc2)C(C)C)n1C (stereo not drawn)
Ans. 0 (no)

Qu. // inclusive: NA uptake inhibition at least 70 % inhibition? input: CN(C(=O)c1ccc(CN2CCC(Cc3ccccc3)CC2)n1C)C1CCCCC1
Ans. 0 (no)
